src = PubChem BioAssay (NCI)

growth inhibition reference
- methodSummary: NCI Yeast Anticancer Drug Screen. Data for the mlh1 rad18 strain (AID 175)
- settings: S. cerevisiae mlh1 rad18 strain growth inhibition; at 50.0 µM; hits give high values
About 79,000 compounds went through this panel and 15% of them were active in at least one assay; those are over-represented in the sample as a whole.
All answers are understood in %, so give the number only.

NC(=S)N/N=C\c1ncccc1OCc1cccc(N)c1 | 29.2
O=S(=O)(CC(Br)c1ccccc1)c1ccccc1 (stereo not drawn) | 45
CCOC(COc1ccc2ccccc2c1)OCC | -10.1
COc1cc([N+](=O)[O-])c(C)cc1Br | 9.45
CCOC(=O)CN1CN(CCc2ccccc2)CC(C)(C)C1OCC (stereo not drawn) | 39.5

Name the recorded growth inhibition of the item COc1ccc(/C=C\c2cc(OC)c(OC)c(OC)c2)cc1OC(=O)CC(N)C(=O)O (stereo not drawn) in your answer.
-5.8

Using known records, supply growth inhibition for Cc1c2c(n3c(nc4ccccc43)c1C#N)SCC2
-17.5

###

Consider the following compounds and their measured growth inhibition readings.
- methodSummary: NCI Yeast Anticancer Drug Screen. Data for the mlh1 rad18 strain (AID 175)
- settings: S. cerevisiae mlh1 rad18 strain growth inhibition; at 50.0 µM; hits give high values
Compounds without any hit were thinned out: in the full panel of roughly 79,000, 15% have a hit. The source made the active and inactive calls. Cut-off read from the data, not from the text of the source: active = growth inhibition above about 70%; inactive = the rest.

Example results:
CN(C(=O)CCC1OCCO1)c1cc([N+](=O)[O-])ccc1OCc1ccccc1 | 15.2% (inactive)
Cc1ccc(N2C(=O)/C(=C3\Sc4c(nc(C)n(C)c4=O)N3c3ccccc3)SC2=S)cc1 | -26.8% (inactive)
COc1cc(C(=O)O)c(O)c(OC)c1OC | 3.4% (inactive)

Below: the item to evaluate.
For the compound CCC(=O)CCc1ccc(OC)cc1 , give its measured growth inhibition value.
-13.8% (inactive)

###

- methodSummary: NCI Yeast Anticancer Drug Screen. Data for the rad50 strain (AID 155);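 also: 0% = growth of vehicle-only cultures of the same strain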
- settings: S. cerevisiae rad50 strain growth inhibition; at 50.0 µM; hits give high values
About 79,000 compounds went through this panel and 15% of them were active in at least one assay; those are over-represented in the sample as a whole. Activity calls are given as the source filed them. No stated cut-off is given here; in the data, active means growth inhibition above about 70%; inactive means the rest.
property: growth inhibition

Answered cases to consult:
CCCCCCCCn1c(N)c(C#N)cnc1=S | -27.9% (inactive)
Cc1ccc(CNC(=O)Nc2c(C)cccc2C)cc1C | 8.8% (inactive)
O=C(CN(c1ccc(S(=O)(=O)O)cc1)c1ccc(S(=O)(=O)O)cc1)Nn1cnc2ccc(S(=O)(=O)N(c3ccc(S(=O)(=O)O)cc3)c3ccc(S(=O)(=O)O)cc3)cc2c1=O | 29.1% (inactive)

Specify measured growth inhibition for CNC(=O)OCC#CCOC(=O)NC .
-17.5% (inactive)

Supply measured growth inhibition of Cc1cccc(F)c1C in your reply.
24.9% (inactive)

Using the record for CCCCN(CCO)CC(O)Cn1cnc2c(N)ncnc21 (stereo unspecified) , state its measured growth inhibition.
17.4% (inactive)

###

- methodSummary: NCI Yeast Anticancer Drug Screen. Data for the rad50 strain (AID 155);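 also: 0% = growth of vehicle-only cultures of the same strain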
- settings: S. cerevisiae rad50 strain growth inhibition; at 50.0 µM; hits give high values
The panel holds about 79,000 compounds, 15% with a hit somewhere; the sample as a whole holds those more often.
Known growth inhibition of a selection of compounds
Numeric answer only, unit % assumed.

Fc1ccc(-c2cc(-c3cccs3)cc(-c3ccccc3)n2)cc1 | 8.6
CCC(c1ccc(C(C)=O)c(O)c1)C(CC)c1ccc(C(C)=O)c(O)c1 (centres undefined) | 9.65
O=C1CC(O)(c2ccccc2)C(c2ccccc2)=C1c1ccccc1 (centres undefined) | 29.8

Please examine the following record next.
Given NCC1(N2CCOCC2)C2CCCC21CNc1ccccc1 (centres undefined) , respond with its growth inhibition.
-37.2
